# ASSAY: Inhibition of Platelet activating factor (PAF)- induced platelet aggregation in rabbit platelet rich plasma (PRP)
# Type: functional
Listed below: IC50 values for each entry.
Answer with a number only, understood to be in µM.

Use the examples below as a reference point.
{"COMPOUND": "CCOC(=O)CCCCO/N=C(\\c1ccc(CC(=O)N2CCc3c(sc4c3C(c3ccccc3Cl)=NC(C)c3nnc(C)n3-4)C2)cc1)c1cccnc1 (centres undefined)", "ENDPOINT_UNIT": "µM", "MEASURED": 0.085}
{"COMPOUND": "CCOC(=O)CCCC/C=C(/c1cccnc1)c1cccc(CN2CCc3c(sc4c3C(c3ccccc3Cl)=NC(C)c3nnc(C)n3-4)C2)c1 (centres undefined)", "ENDPOINT_UNIT": "µM", "MEASURED": 0.039}
{"COMPOUND": "CCOC(=O)CCCCO/N=C(\\c1ccc(CN2CCc3c(sc4c3C(c3ccccc3Cl)=NC(C)c3nnc(C)n3-4)C2)cc1)c1cccnc1 (centres undefined)", "ENDPOINT_UNIT": "µM", "MEASURED": 0.046}

Now let's try a different one.
q: Please report the recorded IC50 for CCOC(=O)CCCCO/N=C(/c1cccnc1)c1cccc(CCCC(=O)N2CCc3c(sc4c3C(c3ccccc3Cl)=NC(C)c3nnc(C)n3-4)C2)c1 (centres undefined) .
a: 0.039

* * *

# TGT: UniProtKB P24557
# Sequence (P24557 whole entry): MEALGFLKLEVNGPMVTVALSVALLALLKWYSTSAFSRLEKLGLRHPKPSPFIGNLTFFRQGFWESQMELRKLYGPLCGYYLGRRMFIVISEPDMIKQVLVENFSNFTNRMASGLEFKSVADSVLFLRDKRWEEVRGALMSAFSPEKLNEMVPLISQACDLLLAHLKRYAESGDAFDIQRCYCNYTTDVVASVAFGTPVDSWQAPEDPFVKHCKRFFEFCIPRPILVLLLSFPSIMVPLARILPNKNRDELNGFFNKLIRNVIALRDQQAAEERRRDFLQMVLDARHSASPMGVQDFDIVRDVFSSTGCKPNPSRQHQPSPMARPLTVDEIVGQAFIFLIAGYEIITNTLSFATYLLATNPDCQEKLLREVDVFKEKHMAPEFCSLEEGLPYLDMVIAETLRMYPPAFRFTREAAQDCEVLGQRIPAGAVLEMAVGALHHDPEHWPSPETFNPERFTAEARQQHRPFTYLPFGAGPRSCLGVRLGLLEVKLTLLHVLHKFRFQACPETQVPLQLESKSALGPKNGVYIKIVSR
# ASSAY: In vitro inhibition of thromboxane synthase (TXA2) in human platelet microsomes [reduced formation of TXB2 from prostaglandin H2(PGH2)]
# Format: functional, Microsome
# RUN_CONDITIONS: read-out: IC50
pIC50: −log10 of the molar value.
Tick yes if pIC50 is 7 or greater. Tick no if pIC50 is less than 7.

{"COMPOUND": "CCOC(=O)CCCCO/N=C(\\c1ccc(COCC(=O)N2CCc3c(sc4c3C(c3ccccc3Cl)=NC(C)c3nnc(C)n3-4)C2)cc1)c1cccnc1 (centres undefined)", "QUALITATIVE_LABEL": "yes"}
{"COMPOUND": "CCOC(=O)CCCCO/N=C(/c1cccnc1)c1cccc(CCCCN2CCc3c(sc4c3C(c3ccccc3Cl)=NC(C)c3nnc(C)n3-4)C2)c1 (centres undefined)", "QUALITATIVE_LABEL": "yes"}
{"COMPOUND": "Cc1nnc2n1-c1sc3c(c1C(c1ccccc1Cl)=NC2C)CCN(Cc1cccc(/C(=N\\OCCCCC(=O)O)c2cccnc2)c1)C3 (centres undefined)", "QUALITATIVE_LABEL": "yes"}
{"COMPOUND": "Cc1nnc2n1-c1sc3c(c1C(c1ccccc1Cl)=NC2C)CCN(Cc1cccc(/C(=N\\OCCCCC(=O)OCc2ccccc2)c2cccnc2)c1)C3 (centres undefined)", "QUALITATIVE_LABEL": "no"}
{"COMPOUND": "CCOC(=O)CCCCO/N=C(/c1cccnc1)c1cccc(CN2CCc3c(sc4c3C(c3ccccc3Cl)=NC(C)c3nnc(C)n3-4)C2)c1 (centres undefined)", "QUALITATIVE_LABEL": "yes"}

q: Could you please find out whether CCCNC(=O)CCCCO/N=C(/c1cccnc1)c1cccc(CN2CCc3c(sc4c3C(c3ccccc3Cl)=NC(C)c3nnc(C)n3-4)C2)c1 (centres undefined) has pIC50 that meets 7 or exceeds it?
a: no

* * *

# TGT: Thromboxane-A synthase (Rattus norvegicus)
# ASSAY: Thromboxane synthase inhibitor (TxSI) activity assessed by ex vivo inhibition of serum TXB2 production in rat after Intravenous administration
# Assay type: functional, organism-based
VALUE_KIND: ED50

{"COMPOUND": "Cc1nnc2n1-c1sc3c(c1C(c1ccccc1Cl)=NC2C)CCN(Cc1cccc(/C(=N\\OCCCCC(=O)OCCCc2cccnc2)c2cccnc2)c1)C3 (configuration not stated)", "TGT": "Thromboxane-A synthase (Rattus norvegicus)", "MEASURED": "> 1 mg/kg"}
{"COMPOUND": "Cc1nnc2n1-c1sc3c(c1C(c1ccccc1Cl)=NC2C)CCN(Cc1cccc(/C(=N\\OCCCCC(=O)OCc2ccccc2)c2cccnc2)c1)C3 (configuration not stated)", "TGT": "Thromboxane-A synthase (Rattus norvegicus)", "MEASURED": "> 1 mg/kg"}
{"COMPOUND": "CCOC(=O)CCCCO/N=C(/c1cccnc1)c1cccc(CCCC(=O)N2CCc3c(sc4c3C(c3ccccc3Cl)=NC(C)c3nnc(C)n3-4)C2)c1 (configuration not stated)", "TGT": "Thromboxane-A synthase (Rattus norvegicus)", "MEASURED": "> 1 mg/kg"}
{"COMPOUND": "CCCNC(=O)CCCCO/N=C(/c1cccnc1)c1cccc(CN2CCc3c(sc4c3C(c3ccccc3Cl)=NC(C)c3nnc(C)n3-4)C2)c1 (configuration not stated)", "TGT": "Thromboxane-A synthase (Rattus norvegicus)", "MEASURED": "> 1 mg/kg"}
{"COMPOUND": "CCOC(=O)CCCCO/N=C(\\c1ccc(CN2CCc3c(sc4c3C(c3ccccc3Cl)=NC(C)c3nnc(C)n3-4)C2)cc1)c1cccnc1 (configuration not stated)", "TGT": "Thromboxane-A synthase (Rattus norvegicus)", "MEASURED": "1 mg/kg"}
{"COMPOUND": "CCOC(=O)CCCCO/N=C(\\c1ccc(CC(=O)N2CCc3c(sc4c3C(c3ccccc3Cl)=NC(C)c3nnc(C)n3-4)C2)cc1)c1cccnc1 (configuration not stated)", "TGT": "Thromboxane-A synthase (Rattus norvegicus)", "MEASURED": "> 1 mg/kg"}

q: Please report the recorded ED50 for O=C(O)/C=C/c1ccc(Cn2ccnc2)cc1 .
a: 0.02 mg/kg

* * *

# TGT: Thromboxane-A synthase (Rattus norvegicus)
# ASSAY: Thromboxane synthase inhibitor (TxSI) activity was assessed by ex vivo inhibition of serum TXB2 production in rat after oral administration
# Assay type: functional, organism-based
VALUE_KIND: ED50 (mg/kg)
Answer with a number only, understood to be in mg/kg.

{"MOLECULE": "CCOC(=O)CCCC/C=C(/c1cccnc1)c1cccc(CN2CCc3c(sc4c3C(c3ccccc3Cl)=NC(C)c3nnc(C)n3-4)C2)c1 (centres undefined)", "ED50 (mg/kg)": 3.2}
{"MOLECULE": "Cc1nnc2n1-c1sc3c(c1C(c1ccccc1Cl)=NC2C)CCN(Cc1cccc(/C(=N\\OCCCCC(=O)O)c2cccnc2)c1)C3 (centres undefined)", "ED50 (mg/kg)": 10}

Now let's try a different one.
q: Please report the recorded ED50 for O=C(O)CCCC/C=C(/c1ccccc1)c1cccnc1 .
a: 0.05

* * *

# TGT: Platelet-activating factor receptor (Mus musculus)
# ASSAY: Antagonism of Platelet activating factor (PAF)in mice after Intravenous administration, assayed by PAF-induced death
# Type: functional, organism-based
Listed below: ED50 values for each entry.
Lab note: write values as number then unit, every time.

{"COMPOUND": "CCOC(=O)CCCC/C=C(\\c1ccc(CN2CCc3c(sc4c3C(c3ccccc3Cl)=NC(C)c3nnc(C)n3-4)C2)cc1)c1cccnc1 (centres undefined)", "ED50": "0.55 mg/kg"}
{"COMPOUND": "CCOC(=O)CCCCO/N=C(\\c1ccc(C(=O)N2CCc3c(sc4c3C(c3ccccc3Cl)=NC(C)c3nnc(C)n3-4)C2)cc1)c1cccnc1 (centres undefined)", "ED50": "0.2 mg/kg"}

q: Please report the recorded ED50 for CCOC(=O)CCCCO/N=C(/c1cccnc1)c1cccc(CCCCN2CCc3c(sc4c3C(c3ccccc3Cl)=NC(C)c3nnc(C)n3-4)C2)c1 (centres undefined) .
a: 0.38 mg/kg

q: Lookup Cc1nnc2n1-c1sc3c(c1C(c1ccccc1Cl)=NC2C)CCN(Cc1cccc(/C(=N\OCCCCC(=O)OCc2ccccc2)c2cccnc2)c1)C3 (centres undefined)
a: 0.54 mg/kg

q: Lookup CCCNC(=O)CCCCO/N=C(/c1cccnc1)c1cccc(CN2CCc3c(sc4c3C(c3ccccc3Cl)=NC(C)c3nnc(C)n3-4)C2)c1 (centres undefined)
a: 0.54 mg/kg

FYI, the data here is from ChEMBL document CHEMBL1135874.
